Tested on: ATP;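 further: ATP exposure 15 min at 22 °C before imaging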
Assay Info: switch fluorescence ratio, 500 uM ATP over buffer (Cy3 cluster intensity, sum of 5 cycles each) (fold (ratio)); higher = stronger signal-on switching upon ATP binding; sequences stand for … in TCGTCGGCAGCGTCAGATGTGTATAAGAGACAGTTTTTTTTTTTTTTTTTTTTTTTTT…TC
Test Parameters: aptamer strand: ATP DNA aptamer (quencher-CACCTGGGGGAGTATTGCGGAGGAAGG + anchor), 100 nM annealed; ATP concentration: 500 uM
Assign TRUE whenever switch fluorescence ratio does not fall below 1; assign FALSE whenever it does.

Completed entries (count: 6):
{"Input Sequence": "GATTAGGCTC", "Target Or System": "ATP", "Label Value": "TRUE"}
{"Input Sequence": "ATTTCAAGTT", "Target Or System": "ATP", "Label Value": "FALSE"}
{"Input Sequence": "TTTGGAGCTT", "Target Or System": "ATP", "Label Value": "TRUE"}
{"Input Sequence": "GACGCCGGTC", "Target Or System": "ATP", "Label Value": "TRUE"}
{"Input Sequence": "ATAAAGCATA", "Target Or System": "ATP", "Label Value": "TRUE"}
{"Input Sequence": "TGATGGGTGC", "Target Or System": "ATP", "Label Value": "TRUE"}

Kindly determine if switch fluorescence ratio recorded for TTTTCCAGCG is above or exactly 1.
TRUE

Repeat for the following sequence: TTACAGTTGG
TRUE

Repeat for the following sequence: GGGGGAGAGA
TRUE

Repeat for the following sequence: TACCACTTAA
TRUE

Repeat for the following sequence: TTGCAGCTCA
TRUE

Repeat for the following sequence: TTTTATGTAT
TRUE

Repeat for the following sequence: ATCCAGGTTG
TRUE

Repeat for the following sequence: AACCGCGGGT
TRUE

Repeat for the following sequence: ATACGTTATT
TRUE

Repeat for the following sequence: GGGTATGGGC
FALSE

Repeat for the following sequence: TATCGTACAG
TRUE

Repeat for the following sequence: ATGACGGTAG
FALSE

Repeat for the following sequence: CCTGACTTTC
TRUE

Repeat for the following sequence: GGGTGTTTGG
TRUE

Repeat for the following sequence: ACGAGTCTGG
TRUE

====

Test system: ATP;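 further: ATP exposure 15 min at 22 °C before imaging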
Assay Info: switch fluorescence ratio, 500 uM ATP over buffer (Cy3 cluster intensity, sum of 5 cycles each) (fold (ratio)); higher = stronger signal-on switching upon ATP binding; sequences stand for … in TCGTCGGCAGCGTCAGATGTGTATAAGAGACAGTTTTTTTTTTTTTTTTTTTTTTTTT…TC
Test Parameters: aptamer strand: ATP DNA aptamer (quencher-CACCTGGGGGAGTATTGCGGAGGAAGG + anchor), 100 nM annealed; ATP concentration: 500 uM
Property Label: switch fluorescence ratio
Give bare numbers.

Field: example entries. Status: answers known.
{"Input Sequence": "CGCGAAGAAC", "switch fluorescence ratio": 1.04}
{"Input Sequence": "CCAGCTGGAT", "switch fluorescence ratio": 1.01}
{"Input Sequence": "ATTTTGGCGA", "switch fluorescence ratio": 1.02}

Would you be so kind as to report switch fluorescence ratio for each listed record?
1. AGGAAGTTGC
2. CATAGGAACG
3. AGTGGACAGC
4. GCAGGGGGGG
5. GAGGTGTTCA
6. AAGGGTTGCT
7. TGTTTTATAA
8. AACCGCTATA

1: 0.988; 2: 0.955; 3: 1; 4: 1.05; 5: 1.01; 6: 1.01; 7: 0.995; 8: 3.11
